Data origin, for the record: patent US11365192B2

# subject.of.test: human CYP4A11 (Homo sapiens (Human), UniProt Q02928)
# Sequence (Q02928 5-519): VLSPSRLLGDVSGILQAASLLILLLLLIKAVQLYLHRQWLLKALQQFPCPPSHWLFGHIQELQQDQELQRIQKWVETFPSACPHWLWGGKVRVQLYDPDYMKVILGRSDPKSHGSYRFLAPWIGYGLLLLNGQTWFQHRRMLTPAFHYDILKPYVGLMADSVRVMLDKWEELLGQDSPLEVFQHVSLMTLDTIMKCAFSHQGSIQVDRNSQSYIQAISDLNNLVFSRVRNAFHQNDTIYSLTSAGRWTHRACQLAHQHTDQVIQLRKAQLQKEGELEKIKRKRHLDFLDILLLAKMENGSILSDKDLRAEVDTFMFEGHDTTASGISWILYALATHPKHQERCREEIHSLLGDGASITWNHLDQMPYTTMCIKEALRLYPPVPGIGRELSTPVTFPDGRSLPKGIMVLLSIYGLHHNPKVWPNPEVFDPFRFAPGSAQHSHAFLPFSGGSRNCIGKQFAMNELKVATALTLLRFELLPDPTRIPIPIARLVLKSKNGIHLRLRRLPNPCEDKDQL
# assay.name: Inhibition test against 20-HETE producing enzyme CYP4A11 (luciferine derivative, luminescence)
# Format: biochemical
# measurement.conditions: human CYP4A11, luciferine derivative, luminescence
reported.property: pIC50
# pIC50 is unitless: minus log10 of the molar concentration; print number only

C[C@H](NC(=O)c1cccc(COc2ccc(-c3ccn[nH]3)nc2)c1)C(=O)O | 7.09
O=C(O)C1CCN(C(=O)c2cccc(COc3ccc(-c4ccn[nH]4)nc3)c2)C1 (stereo not shown) | 6.64
O=C(CCc1cccc(COc2cnc(-c3ccn[nH]3)c(F)c2)c1)N1CCC1 | 7.46

Shifting focus to the molecule that follows.
Q: Tell me the measured pIC50 of O=C(O)C1CC1c1ccc(F)c(CCOc2ccc(-c3ccn[nH]3)nc2)c1 (stereo not shown) [Example 74-6] , please.
Ans: 7.46
